Experiment: Water solubility of freeze-dried compounds in water (observation and HPLC)
Residues, ends and D or L forms follow the SMILES beside them. *: point of attachment. Doxorubicin(3'-N) = COc1cccc2c1C(=O)c1c(O)c3c(c(O)c1C2=O)C[C@@](O)(C(=O)CO)C[C@@H]3O[C@H]1C[C@H](N*)[C@H](O)[C@H](C)O1; Hexanoyl(6-maleimido) = O=C1C=CC(=O)N1CCCCCC(=O)*; Butanoyl(4-maleimido) = O=C1C=CC(=O)N1CCCC(=O)*; PEG6 = NCCOCCOCCOCCOCCOCCOCCC(=O)O; PEG2 = NCCOCCOCCC(=O)O
MEASUREMENT_LABEL: solubility

COMPOUND: COc1cccc2c1C(=O)c1c(O)c3c(c(O)c1C2=O)C[C@@](O)(C(=O)CO)C[C@@H]3O[C@H]1C[C@H](NC(=O)[C@H](CC(C)C)NC(=O)[C@H](CC(N)=O)NC(=O)[C@H](C)NC(=O)[C@H](C)NC(=O)[C@H](CC(=O)O)NC(=O)CCOCCOCCNC(=O)CCCN2C(=O)C=CC2=O)[C@H](O)[C@H](C)O1 [QHL-066] ({Butanoyl(4-maleimido)-PEG2}-DAANL-{Doxorubicin(3'-N)})
MEASUREMENT_LABEL: solubility
TEST_VALUE: > 15 mg/mL

GET /values?readout=solubility&item= COc1cccc2c1C(=O)c1c(O)c3c(c(O)c1C2=O)C[C@@](O)(C(=O)CO)C[C@@H]3O[C@H]1C[C@H](NC(=O)[C@H](CC(C)C)NC(=O)[C@H](CC(N)=O)NC(=O)[C@H](C)NC(=O)[C@H](C)NC(=O)[C@H](CCCNC(=N)N)NC(=O)CCCCCN2C(=O)C=CC2=O)[C@H](O)[C@H](C)O1 [QHL-136] ({Hexanoyl(6-maleimido)}-RAANL-{Doxorubicin(3'-N)})
> 2 mg/mL

So what's the measured solubility for this one? COc1cccc2c1C(=O)c1c(O)c3c(c(O)c1C2=O)C[C@@](O)(C(=O)CO)C[C@@H]3O[C@H]1C[C@H](NC(=O)[C@H](CC(C)C)NC(=O)[C@H](CC(N)=O)NC(=O)[C@H](C)NC(=O)[C@H](C)NC(=O)CCOCCOCCOCCOCCOCCOCCNC(=O)CCCN2C(=O)C=CC2=O)[C@H](O)[C@H](C)O1 [QHL-108] ({Butanoyl(4-maleimido)-PEG6}-AANL-{Doxorubicin(3'-N)})
> 20 mg/mL

----------
Listed here are molecules together with their documented solubility.
Assay: Water solubility of freeze-dried compounds in water (observation and HPLC)
Residues, ends and D or L forms follow the SMILES beside them. *: point of attachment. Doxorubicin(3'-N) = COc1cccc2c1C(=O)c1c(O)c3c(c(O)c1C2=O)C[C@@](O)(C(=O)CO)C[C@@H]3O[C@H]1C[C@H](N*)[C@H](O)[C@H](C)O1; Butanoyl(4-maleimido) = O=C1C=CC(=O)N1CCCC(=O)*; Propanoyl(3-maleimido) = O=C1C=CC(=O)N1CCC(=O)*; X2 = O=C1C=CC(=O)N1CCOCCOCCC(=O)*; PEG3 = NCCOCCOCCOCCC(=O)O

Below are worked cases with known answers.
MOLECULE: COc1cccc2c1C(=O)c1c(O)c3c(c(O)c1C2=O)C[C@@](O)(C(=O)CO)C[C@@H]3O[C@H]1C[C@H](NC(=O)[C@H](CC(C)C)NC(=O)[C@H](CC(N)=O)NC(=O)[C@H](C)NC(=O)[C@H](C)NC(=O)[C@H](CCC(=O)O)NC(=O)CCOCCOCCN2C(=O)C=CC2=O)[C@H](O)[C@H](C)O1 [QHL-021] (X2-EAANL-{Doxorubicin(3'-N)})
solubility: > 20 mg/mL
--
MOLECULE: COc1cccc2c1C(=O)c1c(O)c3c(c(O)c1C2=O)C[C@@](O)(C(=O)CO)C[C@@H]3O[C@H]1C[C@H](NC(=O)[C@H](CC(C)C)NC(=O)[C@H](CC(N)=O)NC(=O)[C@H](C)NC(=O)[C@H](C)NC(=O)CCOCCOCCOCCNC(=O)CCN2C(=O)C=CC2=O)[C@H](O)[C@H](C)O1 [QHL-090] ({Propanoyl(3-maleimido)-PEG3}-AANL-{Doxorubicin(3'-N)})
solubility: > 10 mg/mL

Value lookup for solubility; key = COc1cccc2c1C(=O)c1c(O)c3c(c(O)c1C2=O)C[C@@](O)(C(=O)CO)C[C@@H]3O[C@H]1C[C@H](NC(=O)[C@H](CC(C)C)NC(=O)[C@H](CC(N)=O)NC(=O)[C@H](C)NC(=O)[C@H](C)NC(=O)[C@H](CC(=O)O)NC(=O)CCOCCOCCOCCNC(=O)CCCN2C(=O)C=CC2=O)[C@H](O)[C@H](C)O1 [QHL-072] ({Butanoyl(4-maleimido)-PEG3}-DAANL-{Doxorubicin(3'-N)})
> 25 mg/mL

----------
Experiment: Water solubility of freeze-dried compounds in water (observation and HPLC)
Non-standard residues stand in square brackets, D forms with d. Residues, ends and D or L forms follow the SMILES beside them. ξ: configuration not given here. *: point of attachment. Doxorubicin(3'-N) = COc1cccc2c1C(=O)c1c(O)c3c(c(O)c1C2=O)C[C@@](O)(C(=O)CO)C[C@@H]3O[C@H]1C[C@H](N*)[C@H](O)[C@H](C)O1; Mal(CH2CH2O)6CH2CH2CO = O=C1C=CC(=O)N1CCOCCOCCOCCOCCOCCOCCC(=O)*; Hexanoyl(6-maleimido) = O=C1C=CC(=O)N1CCCCCC(=O)*; Butanoyl(4-maleimido) = O=C1C=CC(=O)N1CCCC(=O)*; Propanoyl(3-maleimido) = O=C1C=CC(=O)N1CCC(=O)*; PEG4 = NCCOCCOCCOCCOCCC(=O)O; PEG3 = NCCOCCOCCOCCC(=O)O; ξL = CC(C)CC(N)C(=O)O
MEASUREMENT_LABEL: solubility

As a guide, the following entries are already answered.
COMPOUND: COc1cccc2c1C(=O)c1c(O)c3c(c(O)c1C2=O)C[C@@](O)(C(=O)CO)C[C@@H]3O[C@H]1C[C@H](NC(=O)[C@H](CC(C)C)NC(=O)[C@H](CC(N)=O)NC(=O)[C@H](C)NC(=O)[C@H](C)NC(=O)[C@H](CO)NC(=O)CCCCCN2C(=O)C=CC2=O)[C@H](O)[C@H](C)O1 [QHL-129] ({Hexanoyl(6-maleimido)}-SAANL-{Doxorubicin(3'-N)})
TEST_VALUE: > 5000 µg/mL
--
COMPOUND: COc1cccc2c1C(=O)c1c(O)c3c(c(O)c1C2=O)C[C@@](O)(C(=O)CO)C[C@@H]3O[C@H]1C[C@H](NC(=O)C(CC(C)C)NC(=O)[C@H](CC(N)=O)NC(=O)[C@H](C)NC(=O)[C@H](C)N)[C@H](O)[C@H](C)O1 (stereo partly drawn) [C2 AANL-DOX] (H-AAN[ξL]-{Doxorubicin(3'-N)})
TEST_VALUE: < 1000 µg/mL
--
COMPOUND: COc1cccc2c1C(=O)c1c(O)c3c(c(O)c1C2=O)C[C@@](O)(C(=O)CO)C[C@@H]3O[C@H]1C[C@H](NC(=O)[C@H](CC(C)C)NC(=O)[C@H](CC(N)=O)NC(=O)[C@H](C)NC(=O)[C@H](C)NC(=O)[C@H](CCC(=O)O)NC(=O)CCN2C(=O)C=CC2=O)[C@H](O)[C@H](C)O1 [QHL-111] ({Propanoyl(3-maleimido)}-EAANL-{Doxorubicin(3'-N)})
TEST_VALUE: > 10000 µg/mL

Entry under review: COc1cccc2c1C(=O)c1c(O)c3c(c(O)c1C2=O)C[C@@](O)(C(=O)CO)C[C@@H]3O[C@H]1C[C@H](NC(=O)[C@H](CC(C)C)NC(=O)[C@H](CC(N)=O)NC(=O)[C@H](C)NC(=O)[C@H](C)NC(=O)CCOCCOCCOCCOCCNC(=O)CCCN2C(=O)C=CC2=O)[C@H](O)[C@H](C)O1 [QHL-105] ({Butanoyl(4-maleimido)-PEG4}-AANL-{Doxorubicin(3'-N)}) . Reported solubility?
> 10000 µg/mL

Find the recorded solubility belonging to COc1cccc2c1C(=O)c1c(O)c3c(c(O)c1C2=O)C[C@@](O)(C(=O)CO)C[C@@H]3O[C@H]1C[C@H](NC(=O)[C@H](CC(C)C)NC(=O)[C@H](CC(N)=O)NC(=O)[C@H](C)NC(=O)[C@H](C)NC(=O)[C@H](Cc2c[nH]cn2)NC(=O)CCCCCN2C(=O)C=CC2=O)[C@H](O)[C@H](C)O1 [QHL-137] ({Hexanoyl(6-maleimido)}-HAANL-{Doxorubicin(3'-N)}) and report it.
> 5000 µg/mL

Given the entry COc1cccc2c1C(=O)c1c(O)c3c(c(O)c1C2=O)C[C@@](O)(C(=O)CO)C[C@@H]3O[C@H]1C[C@H](NC(=O)[C@H](CC(C)C)NC(=O)[C@H](CC(N)=O)NC(=O)[C@H](C)NC(=O)[C@H](C)NC(=O)[C@H](CCC(=O)O)NC(=O)CCOCCOCCOCCNC(=O)CCCN2C(=O)C=CC2=O)[C@H](O)[C@H](C)O1 [QHL-069] ({Butanoyl(4-maleimido)-PEG3}-EAANL-{Doxorubicin(3'-N)}) , report its measured solubility.
> 25000 µg/mL

Given COc1cccc2c1C(=O)c1c(O)c3c(c(O)c1C2=O)C[C@@](O)(C(=O)CO)C[C@@H]3O[C@H]1C[C@H](NC(=O)[C@H](CC(C)C)NC(=O)[C@H](CC(N)=O)NC(=O)[C@H](C)NC(=O)[C@H](C)NC(=O)[C@H](CC(=O)O)NC(=O)CCOCCOCCOCCOCCNC(=O)CCCN2C(=O)C=CC2=O)[C@H](O)[C@H](C)O1 [QHL-078] ({Butanoyl(4-maleimido)-PEG4}-DAANL-{Doxorubicin(3'-N)}) , state its recorded solubility.
> 25000 µg/mL

Reported solubility for COc1cccc2c1C(=O)c1c(O)c3c(c(O)c1C2=O)C[C@@](O)(C(=O)CO)C[C@@H]3O[C@H]1C[C@H](NC(=O)[C@H](CC(C)C)NC(=O)[C@H](CC(N)=O)NC(=O)[C@H](C)NC(=O)[C@H](C)NC(=O)[C@H](CCC(=O)O)NC(=O)CCOCCOCCOCCOCCOCCOCCN2C(=O)C=CC2=O)[C@H](O)[C@H](C)O1 [QHL-024] ({Mal(CH2CH2O)6CH2CH2CO}-EAANL-{Doxorubicin(3'-N)}) : what is it?
> 30000 µg/mL
